Just for reference, ChEMBL document CHEMBL1128695 is where these values come from.

test system: MT4; test: Protection of MT-4 cells against the cytopathic effect of HIV-2 (8 days); type: functional, cell-based; conditions: Homo sapiens, MT4, 192 h
Exercise: for every item that follows, state its recorded log10 EC50.
Friendly reminder: values = log10 of EC50, unit µM.

In: Which log10 EC50 is reported for this compound? "C[C@@H](Cn1nc2nc(N)nc(O)c2n1)OCP(=O)(O)O"
Out: 1.86

In: What would you report for "C[C@H](Cn1nnc2c(O)nc(N)nc21)OCP(=O)(O)O" ?
Out: 2.30

In: What would you report for "C[C@H](Cn1cnc2c(O)nc(N)nc21)OCP(=O)(O)O" ?
Out: 1.48

In: What would you report for "C[C@@H](Cn1nnc2c(O)nc(N)nc21)OCP(=O)(O)O" ?
Out: 1.10

In: What would you report for "Nc1nc2c(ncn2CCOCP(=O)(O)O)c(=O)[nH]1" ?
Out: -0.70

In: What would you report for "C[C@@H](Cn1cnc2c(O)nc(N)nc21)OCP(=O)(O)O" ?
Out: 0.65

* * *

system: MT4; experiment: Protection of MT-4 cells against the cytopathic effect of HIV-1 (4 days); assay type: functional, cell-based; settings: Homo sapiens, MT4, 96 h
Exercise: for every item that follows, state its recorded log10(EC50).
Friendly reminder: values = log10 of EC50, unit µM.

In: Which log10(EC50) is reported for this compound? "C[C@H](Cn1cnc2c(O)nc(N)nc21)OCP(=O)(O)O"
Out: 1.28

In: What would you report for "C[C@@H](Cn1cnc2c(O)nc(N)nc21)OCP(=O)(O)O" ?
Out: 0.65

In: What would you report for Nc1nc2c(ncn2CCOCP(=O)(O)O)c(=O)[nH]1 [GS-438] ?
Out: -0.72

In: What would you report for "C[C@@H](Cn1nc2nc(N)nc(O)c2n1)OCP(=O)(O)O" ?
Out: 1.72

In: What would you report for "C[C@@H](Cn1nnc2c(O)nc(N)nc21)OCP(=O)(O)O" ?
Out: 1.08

In: What would you report for "C[C@H](Cn1nnc2c(O)nc(N)nc21)OCP(=O)(O)O" ?
Out: 1.97
